Values compiled from ChEMBL document CHEMBL1137710.

Reported TGI values are given for each entry in this list.
# System: MDA-MB-231
# assay protocol: Growth inhibition of human MDA-MB-231 cells after 48 hrs by sulforhodamine B assay
# Type: functional
# condition label: MDA-MB-231, 48 h, read-out: pTGI (converted)

| smiles representation | unit of measure | TGI |
| --- | --- | --- |
| COc1ccc(CNc2nc3cc(N)cc(N)c3nc2-c2ccccc2)cc1 | µM | 13.8 |
| Nc1cc(N)c2nc(-c3ccccc3)c(Oc3ccc(Cl)c(Cl)c3)nc2c1 | µM | 26.3 |
| COc1cc(CNc2nc3cc(N)cc(N)c3nc2-c2ccccc2)cc(OC)c1 | µM | 6.03 |

----------
# System: SNB-75
# assay protocol: Growth inhibition of human SNB75 cells after 48 hrs by sulforhodamine B assay
# Type: functional
# condition label: SNB-75, 48 h, read-out: pTGI (converted)
Reported TGI values are given for each entry in this list.
experimental readout: TGI

| smiles representation | experimental readout | result |
| --- | --- | --- |
| COc1cc(CNc2nc3cc(N)cc(N)c3nc2-c2ccccc2)cc(OC)c1OC | TGI | 14.5 µM |
| COc1ccc(CNc2nc3cc(N)cc(N)c3nc2-c2ccccc2)cc1 | TGI | 30.2 µM |
| COc1ccc(CNc2nc3cc(N)cc(N)c3nc2-c2ccccc2)cc1OC | TGI | 39.8 µM |
| Nc1cc(N)c2nc(-c3ccccc3)c(Oc3ccc(F)cc3)nc2c1 | TGI | 49 µM |
| Nc1cc(N)c2nc(-c3ccccc3)c(Sc3ccc(F)cc3)nc2c1 | TGI | 47.9 µM |
| Nc1cc(N)c2nc(-c3ccccc3)c(NCc3ccc(F)cc3)nc2c1 | TGI | 5.01 µM |
| COc1cc(OC)cc(Oc2nc3cc(N)cc(N)c3nc2-c2ccccc2)c1 | TGI | 2.69 µM |

----------
# System: NCI/ADR-RES
# assay protocol: Growth inhibition of human NCI/ADR-RES cells after 48 hrs by sulforhodamine B assay
# Format: functional
# condition label: read-out: pTGI (converted)
experimental readout: TGI

| smiles representation | target or system | result |
| --- | --- | --- |
| COc1cc(OC)cc(Oc2nc3cc(N)cc(N)c3nc2-c2ccccc2)c1 | NCI/ADR-RES | 3.89 µM |
| Nc1cc(N)c2nc(-c3ccccc3)c(Sc3ccc(F)cc3)nc2c1 | NCI/ADR-RES | 34.7 µM |
| COc1ccc(CNc2nc3cc(N)cc(N)c3nc2-c2ccccc2)cc1 | NCI/ADR-RES | 83.2 µM |

----------
# System: SK-MEL-2
# assay protocol: Growth inhibition of human SK-MEL-2 cells after 48 hrs by sulforhodamine B assay
# Assay type: functional
# condition label: SK-MEL-2, 48 h, read-out: pLC50 (the source's name) (converted)

| smiles representation | CC50 |
| --- | --- |
| Nc1cc(N)c2nc(-c3ccccc3)c(NCc3ccc(F)cc3)nc2c1 | > 100 µM |
| Nc1cc(N)c2nc(-c3ccccc3)c(Sc3ccc(Cl)c(Cl)c3)nc2c1 | > 100 µM |
| COc1cc(OC)cc(Oc2nc3cc(N)cc(N)c3nc2-c2ccccc2)c1 | 38 µM |

----------
# System: OVCAR-5
# assay protocol: Growth inhibition of human OVCAR5 cells after 48 hrs by sulforhodamine B assay
# Assay type: functional
# condition label: OVCAR-5, 48 h, read-out: pTGI (converted)
experimental readout: TGI (µM)

| smiles representation | unit of measure | sign qualifier | quantitative result |
| --- | --- | --- | --- |
| COc1cc(OC)cc(Oc2nc3cc(N)cc(N)c3nc2-c2ccccc2)c1 | µM | = | 16.2 |
| Nc1cc(N)c2nc(-c3ccccc3)c(Oc3ccc(F)cc3)nc2c1 | µM | = | 47.9 |
| COc1ccc(CNc2nc3cc(N)cc(N)c3nc2-c2ccccc2)cc1OC | µM | = | 41.7 |
| Nc1cc(N)c2nc(-c3ccccc3)c(Sc3ccc(F)cc3)nc2c1 | µM | = | 45.7 |
| Nc1cc(N)c2nc(-c3ccccc3)c(NCc3ccc(Cl)c(Cl)c3)nc2c1 | µM | = | 40.7 |
| COc1ccc(Sc2nc3cc(N)cc(N)c3nc2-c2ccccc2)cc1 | µM | > | 100 |
| Nc1cc(N)c2nc(-c3ccccc3)c(Oc3ccc(Cl)c(Cl)c3)nc2c1 | µM | = | 58.9 |
| COc1ccc(CNc2nc3cc(N)cc(N)c3nc2-c2ccccc2)cc1 | µM | = | 45.7 |
| Nc1cc(N)c2nc(-c3ccccc3)c(NCc3ccc(F)cc3)nc2c1 | µM | = | 7.59 |
| COc1cc(CNc2nc3cc(N)cc(N)c3nc2-c2ccccc2)cc(OC)c1OC | µM | > | 50.1 |
| COc1cc(CNc2nc3cc(N)cc(N)c3nc2-c2ccccc2)cc(OC)c1 | µM | = | 29.5 |
| COc1ccc(Oc2nc3cc(N)cc(N)c3nc2-c2ccccc2)cc1 | µM | > | 100 |
| Nc1cc(N)c2nc(-c3ccccc3)c(Sc3ccc(Cl)c(Cl)c3)nc2c1 | µM | = | 58.9 |
